The measured values listed here are drawn from patent US10344049B2.

Assignment: determine reported pIC50 for the given compounds.
System: human colorectal cancer cells SW-480
Experiment: Cell viability test (Resazurin), SW480 cells
Assay type: cell-based
Conditions: Homo sapiens, SW480, SW480 cells; grade of the IC50 of Table 2; read-out: evaluation of ability to inhibit cell growth activity (IC50)
pIC50: −log10 of the molar value.

Record excerpt, results attached:
>  <Compound>
CO[C@H]1C=C2[C@@H](CC[C@H](O)C2(C)C)[C@]2(C=O)CC[C@]3(C)[C@@H]([C@H](C)C/C=C/C(C)(C)OC)CC[C@@]3(C)[C@H]12 [Compound 23]

>  <Tested System>
human colorectal cancer cells SW-480

>  <pIC50>
> 5.10

$$$$
>  <Compound>
C[C@H](C/C=C/C(C)(C)O)[C@H]1CC[C@@]2(C)[C@@H]3[C@@H](O)C=C4[C@@H](CC[C@H](O)C4(C)C)[C@]3(C=O)CC[C@]12C [Compound 1]

>  <Tested System>
human colorectal cancer cells SW-480

>  <pIC50>
< 3.59

$$$$

State recorded pIC50 for all listed compounds.
1. CC(=O)O[C@H]1C=C2[C@@H](CC[C@H](OC(C)=O)C2(C)C)[C@]2(C=O)CC[C@]3(C)[C@@H]([C@H](C)C[C@H](C=C(C)C)OC(C)=O)CC[C@@]3(C)[C@H]12 [Compound 3]
2. CO[C@H]1O[C@]23C=C[C@@H]4[C@@]1(CC[C@]1(C)[C@@H]([C@H](C)C/C=C/C(C)(C)O)CC[C@@]41C)[C@@H]2CC[C@H](O)C3(C)C [Compound 20]

Given back:
1. 4.19 to 4.80
2. 4.80 to 5.10

State recorded pIC50 for all listed compounds.
1. CC(=O)O[C@H]1C=C2[C@@H](CC[C@H](O)C2(C)C)[C@]2(C=O)CC[C@]3(C)[C@@H]([C@H](C)C[C@H](C=C(C)C)OC(C)=O)CC[C@@]3(C)[C@H]12 [Compound 7]
2. CC(C)=CC(=O)C[C@@H](C)[C@H]1CC[C@@]2(C)[C@@H]3[C@@H](O)C=C4[C@@H](CC[C@H](O)C4(C)C)[C@]3(C=O)CC[C@]12C [Compound 11]
3. CC(=O)O[C@H]1C=C2[C@@H](CC[C@H](O)C2(C)C)[C@]2(C=O)CC[C@]3(C)[C@@H]([C@H](C)C/C=C/C(C)(C)O)CC[C@@]3(C)[C@H]12 [Compound 9]
4. CC(=O)O[C@@H](C=C(C)C)C[C@@H](C)[C@H]1CC[C@@]2(C)[C@@H]3[C@@H](O)C=C4[C@@H](CC[C@H](O)C4(C)C)[C@]3(C=O)CC[C@]12C [Compound 10]

Given back:
1: 4.80 to 5.10; 2: < 3.59; 3: 4.19 to 4.80; 4: 4.19 to 4.80

Asked: Quickly give me recorded pIC50 for CC(=O)O[C@H]1C=C2[C@@H](CC[C@H](OC(C)=O)C2(C)C)[C@]2(C=O)CC[C@]3(C)[C@@H]([C@H](C)C[C@@H](O)C=C(C)C)CC[C@@]3(C)[C@H]12 [Compound 5]
Given back: 4.19 to 4.80

---

Tested on: human breast cancer cells MDA-MB-231
Assay: Cell viability test (Resazurin), MDA-MB-231 cells
Assay type: cell-based
Settings: MDA-MB-231 cells, 48 hours, 0.1% FCS, Resazurin; read-out: inhibitory concentrations of cell growth activity IC50
Procedure: Cell viability was determined with Resazurin (at a final concentration of 25 μg/mL).
Assignment: determine reported IC50 for the given compounds.
Give bare numbers, in µM.

Record excerpt, results attached:
>  <Entry Smiles>
CO[C@H]1O[C@]23C=C[C@@H]4[C@@]1(CC[C@]1(C)[C@@H]([C@H](C)C/C=C/C(C)(C)O)CC[C@@]41C)[C@@H]2CC[C@H](O)C3(C)C

>  <Test Result>
10.4

$$$$
>  <Entry Smiles>
C[C@H](C/C=C/C(C)(C)O)[C@H]1CC[C@@]2(C)[C@@H]3[C@@H](O[C@@H]4O[C@H](CO)[C@@H](O)[C@H](O)[C@H]4O)C=C4[C@@H](CC[C@H](O)C4(C)C)[C@]3(C=O)CC[C@]12C

>  <Test Result>
32.8

$$$$

Now for the compound whose IC50 we want.
Asked: Quickly give me recorded IC50 for "CC(C)=C[C@@H](C[C@@H](C)[C@H]1CC[C@@]2(C)[C@@H]3[C@@H](O)C=C4[C@@H](CC[C@H](O)C4(C)C)[C@]3(C=O)CC[C@]12C)O[C@@H]1O[C@H](CO)[C@@H](O)[C@H](O)[C@H]1O"
Given back: 41.7

---

Test system: human liver cancer cells Mahlavu
Assay: Cell viability test (Resazurin), Mahlavu cells
Type: cell-based
Conditions: Homo sapiens, Mahlavu, 48 h, 0.1% FCS, Resazurin, read-out: inhibitory concentrations of cell growth activity IC50
Assignment: determine reported pIC50 for the given compounds.
Answers are plain numbers, as −log10 of the molar value.

Record excerpt, results attached:
>  <Compound>
CC(=O)O[C@@H](C=C(C)C)C[C@@H](C)[C@H]1CC[C@@]2(C)[C@@H]3[C@@H](O)C=C4[C@@H](CC[C@H](O)C4(C)C)[C@]3(C=O)CC[C@]12C

>  <Test Result>
4.71

$$$$
>  <Compound>
COC1O[C@]23C=C[C@@H]4[C@@]1(CC[C@]1(C)[C@@H]([C@H](C)C/C=C/C(C)(C)O)CC[C@@]41C)[C@@H]2CC[C@H](O)C3(C)C (stereo partly drawn)

>  <Test Result>
4.68

$$$$
>  <Compound>
CC(=O)O[C@H]1CC[C@@H]2C(=C[C@H](O)[C@@H]3[C@@]2(C=O)CC[C@]2(C)[C@@H]([C@H](C)C[C@H](C=C(C)C)OC(C)=O)CC[C@@]32C)C1(C)C

>  <Test Result>
4.79

$$$$
>  <Compound>
CC(=O)O[C@H]1C=C2[C@@H](CC[C@H](OC(C)=O)C2(C)C)[C@]2(C=O)CC[C@]3(C)[C@@H]([C@H](C)C[C@@H](O)C=C(C)C)CC[C@@]3(C)[C@H]12

>  <Test Result>
4.73

$$$$
>  <Compound>
CC(=O)O[C@H]1C=C2[C@@H](CC[C@H](O)C2(C)C)[C@]2(C=O)CC[C@]3(C)[C@@H]([C@H](C)C[C@H](C=C(C)C)OC(C)=O)CC[C@@]3(C)[C@H]12

>  <Test Result>
4.92

$$$$
>  <Compound>
CC(=O)O[C@H]1C=C2[C@@H](CC[C@H](OC(C)=O)C2(C)C)[C@]2(C=O)CC[C@]3(C)[C@@H]([C@H](C)C/C=C/C(C)(C)O)CC[C@@]3(C)[C@H]12

>  <Test Result>
4.53

$$$$
>  <Compound>
CC(=O)O[C@H]1C=C2[C@@H](CC[C@H](O)C2(C)C)[C@]2(C=O)CC[C@]3(C)[C@@H]([C@H](C)C/C=C/C(C)(C)O)CC[C@@]3(C)[C@H]12

>  <Test Result>
5.29

$$$$
>  <Compound>
CC(=O)O[C@H]1C=C2[C@@H](CC[C@H](OC(C)=O)C2(C)C)[C@]2(C=O)CC[C@]3(C)[C@@H]([C@H](C)C[C@H](C=C(C)C)OC(C)=O)CC[C@@]3(C)[C@H]12

>  <Test Result>
4.64

$$$$

State recorded pIC50 for all listed compounds.
1. CC(C)=C[C@H](O)C[C@@H](C)[C@H]1CC[C@@]2(C)[C@@H]3[C@@H](O)C=C4[C@@H](CC[C@H](O)C4(C)C)[C@]3(C=O)CC[C@]12C
2. CO[C@H]1C=C2[C@@H](CC[C@H](O)C2(C)C)[C@]2(C=O)CC[C@]3(C)[C@@H]([C@H](C)C/C=C/C(C)(C)OC)CC[C@@]3(C)[C@H]12

Given back:
[4.95, 4.81]

---

Tested on: human breast cancer cells MDA-MB-231
Test: Cell viability test (Resazurin), MDA-MB-231 cells
Assay type: cell-based
Conditions: MDA-MB-231 cells; grade of the IC50 of Table 2; read-out: evaluation of ability to inhibit cell growth activity (IC50)
pIC50: −log10 of the molar value.
Assignment: determine reported pIC50 for the given compounds.

Record excerpt, results attached:
>  <Compound>
CC(C)=C[C@H](O)C[C@@H](C)[C@H]1CC[C@@]2(C)[C@@H]3[C@@H](O[C@@H]4O[C@H](CO)[C@@H](O)[C@H](O)[C@H]4O)C=C4[C@@H](CC[C@H](O)C4(C)C)[C@]3(C=O)CC[C@]12C [Compound 13]

>  <Tested System>
human breast cancer cells MDA-MB-231

>  <pIC50>
4.19 to 4.80

$$$$
>  <Compound>
CO[C@@H]1O[C@]23C=C[C@@H]4[C@@]1(CC[C@]1(C)[C@@H]([C@H](C)C[C@@H](O)C=C(C)C)CC[C@@]41C)[C@@H]2CC[C@H](O)C3(C)C [Compound 22]

>  <Tested System>
human breast cancer cells MDA-MB-231

>  <pIC50>
< 3.59

$$$$
>  <Compound>
CO[C@H]1O[C@]23C=C[C@@H]4[C@@]1(CC[C@]1(C)[C@@H]([C@H](C)C[C@H](C=C(C)C)OC)CC[C@@]41C)[C@@H]2CC[C@H](O)C3(C)C [Compound 18]

>  <Tested System>
human breast cancer cells MDA-MB-231

>  <pIC50>
< 3.59

$$$$
>  <Compound>
CC(C)=C[C@@H](C[C@@H](C)[C@H]1CC[C@@]2(C)[C@@H]3[C@@H](O)C=C4[C@@H](CC[C@H](O)C4(C)C)[C@]3(C=O)CC[C@]12C)O[C@@H]1O[C@H](CO)[C@@H](O)[C@H](O)[C@H]1O [Compound 12]

>  <Tested System>
human breast cancer cells MDA-MB-231

>  <pIC50>
4.19 to 4.80

$$$$

Asked: Write pIC50 of COC1O[C@]23C=C[C@@H]4[C@@]1(CC[C@]1(C)[C@@H]([C@H](C)C[C@@H](O)C=C(C)C)CC[C@@]41C)[C@@H]2CC[C@H](O)C3(C)C (some centres unmarked) [Compound 21] ; system used: human breast cancer cells MDA-MB-231
Given back: 3.59 to 4.19
